System under test: FAAH (Mus musculus (Mouse), UniProt O08914)
Sequence (O08914 whole entry): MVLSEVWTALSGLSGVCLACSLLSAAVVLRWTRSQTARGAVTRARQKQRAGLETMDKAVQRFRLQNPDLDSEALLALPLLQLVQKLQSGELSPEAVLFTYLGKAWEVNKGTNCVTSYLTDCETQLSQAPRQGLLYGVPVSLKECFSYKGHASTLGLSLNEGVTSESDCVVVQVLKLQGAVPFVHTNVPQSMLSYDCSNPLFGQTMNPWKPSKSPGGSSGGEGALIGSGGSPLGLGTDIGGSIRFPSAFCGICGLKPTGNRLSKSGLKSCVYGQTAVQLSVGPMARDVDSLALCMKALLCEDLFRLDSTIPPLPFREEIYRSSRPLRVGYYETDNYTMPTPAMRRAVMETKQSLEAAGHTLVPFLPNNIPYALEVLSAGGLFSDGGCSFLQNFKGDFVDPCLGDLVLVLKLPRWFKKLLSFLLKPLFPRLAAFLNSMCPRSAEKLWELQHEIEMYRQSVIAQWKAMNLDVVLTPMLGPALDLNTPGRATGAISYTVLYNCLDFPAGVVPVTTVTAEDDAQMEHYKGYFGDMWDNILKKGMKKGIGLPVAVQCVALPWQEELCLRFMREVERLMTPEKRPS
Test protocol: In vitro competitive activity-based protein profiling (FP-Rh), mouse FAAH
Format: biochemical
Run conditions: mouse brain membrane proteome, competitive ABPP
Protocol: In Vitro Competitive Activity-Based Protein Profiling. Proteomes (mouse brain membrane fraction or cell lysates) ([…], 1.0 mg/mL total protein concentration) were preincubated with varying concentrations of inhibitors at 37° C. After 30 min, FP-Rh (1.0 μL, 50 μM in DMSO) was added and the mixture was incubated for another 30 min at 37° C. Reactions were quenched with SDS loading buffer (50 μL—4×) and run on SDS-PAGE.
Entries and their IC50

Example results:
Smiles structure | IC50
O=C(OC(C(F)(F)F)C(F)(F)F)N1CCN(Cc2ccc(-c3ccccc3)cc2)CC1 | > 10000 nM
CC(C)(C)c1ccc(S(=O)(=O)N2CCN(C(=O)OC(C(F)(F)F)C(F)(F)F)CC2)cc1 | > 10000 nM
O=C(OC(C(F)(F)F)C(F)(F)F)N1CCN(C(c2cocn2)c2cocn2)CC1 | > 6000 nM

Now for a further compound.
Sure, the documented IC50 for CC(C)c1cc(C(C)C)c(S(=O)(=O)N2CCN(C(=O)OC(C(F)(F)F)C(F)(F)F)CC2)c(C(C)C)c1 is > 10000 nM

---

System under test: UniProtKB O35678
Sequence (O35678 whole entry): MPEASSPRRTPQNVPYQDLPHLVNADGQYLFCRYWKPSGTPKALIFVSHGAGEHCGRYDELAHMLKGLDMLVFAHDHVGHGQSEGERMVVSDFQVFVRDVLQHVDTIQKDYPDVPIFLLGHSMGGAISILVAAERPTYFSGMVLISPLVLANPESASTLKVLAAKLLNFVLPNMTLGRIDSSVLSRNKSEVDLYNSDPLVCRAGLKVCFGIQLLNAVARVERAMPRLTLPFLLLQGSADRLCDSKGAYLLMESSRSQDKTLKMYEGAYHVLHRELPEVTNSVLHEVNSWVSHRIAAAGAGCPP
Test protocol: In vitro competitive activity-based protein profiling (FP-Rh), mouse MAGL
Format: biochemical
Run conditions: mouse brain membrane proteome, competitive ABPP
Entries and their IC50

Example results:
Compound | IC50
O=C(OC(C(F)(F)F)C(F)(F)F)N1CCN(S(=O)(=O)c2ccc3ccccc3c2)CC1 [Example 4h] | < 100 nM
O=C(OC(C(F)(F)F)C(F)(F)F)N1CCN(Cc2ccc(-c3ccccc3)cc2)CC1 [Example 3b] | 100 to 1000 nM
O=C(OC(C(F)(F)F)C(F)(F)F)N1CCN(S(=O)(=O)c2ccccc2)CC1 [Example 4a] | 100 to 1000 nM
CN(Cc1ccc2c(c1)OCO2)C(=O)OC(C(F)(F)F)C(F)(F)F [Example 3i] | 100 to 1000 nM

Sure, the documented IC50 for N#Cc1ccc(S(=O)(=O)N2CCN(C(=O)OC(C(F)(F)F)C(F)(F)F)CC2)cc1 [Example 4d] is 100 to 1000 nM

Sure, the documented IC50 for Cc1nc(-c2cccc(CN(C)C(=O)OC(C(F)(F)F)C(F)(F)F)c2)no1 [Example 3j] is 100 to 1000 nM

Sure, the documented IC50 for CN(Cc1cccc(-c2cccnc2)c1)C(=O)OC(C(F)(F)F)C(F)(F)F [Example 3g] is 100 to 1000 nM

---

System under test: ABHD6 (Mus musculus (Mouse))
Sequence (Q8R2Y0 whole entry): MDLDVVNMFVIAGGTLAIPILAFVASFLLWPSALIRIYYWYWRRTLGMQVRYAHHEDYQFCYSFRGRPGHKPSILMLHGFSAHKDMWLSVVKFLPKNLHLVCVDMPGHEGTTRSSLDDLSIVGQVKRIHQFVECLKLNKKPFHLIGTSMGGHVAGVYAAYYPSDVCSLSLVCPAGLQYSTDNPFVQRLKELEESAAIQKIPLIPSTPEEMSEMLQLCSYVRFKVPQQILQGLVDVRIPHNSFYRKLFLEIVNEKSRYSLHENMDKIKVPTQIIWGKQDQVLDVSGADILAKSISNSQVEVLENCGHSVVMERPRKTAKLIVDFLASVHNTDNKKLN
Test protocol: In vitro competitive activity-based protein profiling (FP-Rh), mouse ABHD6
Format: biochemical
Run conditions: mouse brain membrane proteome, competitive ABPP
Entries and their IC50

Compound | IC50
Cc1ccccc1S(=O)(=O)N1CCN(C(=O)OC(C(F)(F)F)C(F)(F)F)CC1 | 100 to 1000 nM
CN(Cc1cccc(-c2cccnc2)c1)C(=O)OC(C(F)(F)F)C(F)(F)F | < 100 nM
O=C(OC(C(F)(F)F)C(F)(F)F)N1CCN(Cc2ccc(-c3ccccc3)cc2)CC1 | > 1000 nM
O=C(OC(C(F)(F)F)C(F)(F)F)N1CCN(C(c2ccc3c(c2)CCO3)c2ccc3c(c2)CCO3)CC1 | 100 to 1000 nM

Sure, the documented IC50 for COc1ccc(N2CCN(C(=O)OC(C(F)(F)F)C(F)(F)F)CC2)cc1 is 100 to 1000 nM

Sure, the documented IC50 for O=C(OC(C(F)(F)F)C(F)(F)F)N1CCN(C(c2ccc(-c3ccccc3)cc2)c2ccc3c(c2)OCO3)CC1 (stereo not shown) is > 1000 nM

---

Entries and their inhibition at 1 µM
System under test: UniProt:O35678
Test protocol: Competitive ABPP, % inhibition at 1 uM, MAGL
Assay type: biochemical

Example results:
Compound | System under test | Readout value
Cc1cc(-c2ccc(CN3CCN(C(=O)OC(C(F)(F)F)C(F)(F)F)CC3)c(F)c2)cc(C)n1 [Example 11aa] | UniProt:O35678 | > 75%
Cc1cccc(-c2ccc(CN3CCN(C(=O)OC(C(F)(F)F)C(F)(F)F)CC3)c(F)c2)n1 [Example 11ac] | UniProt:O35678 | > 75%
Cc1ccccc1-c1ccc(CN2CCN(C(=O)OC(C(F)(F)F)C(F)(F)F)CC2)c(C)n1 [Example 11b] | UniProt:O35678 | > 75%
Cc1cnccc1-c1ccc(CN2CCN(C(=O)OC(C(F)(F)F)C(F)(F)F)CC2)c(F)c1 [Example 11ab] | UniProt:O35678 | > 75%
O=C(OC(C(F)(F)F)C(F)(F)F)N1CCN(Cc2c(Cl)cccc2N2CCCC2)CC1 | UniProt:O35678 | 25 to 75%

Sure, the documented inhibition at 1 µM for O=C(OC(C(F)(F)F)C(F)(F)F)N1CCN(Cc2ccc(-c3cccc(F)c3)cc2F)CC1 [Example 11o] is > 75%

Sure, the documented inhibition at 1 µM for Cc1cccc(-c2ccc(CN3CCN(C(=O)OC(C(F)(F)F)C(F)(F)F)CC3)c(C)c2)c1 [Example 11h] is 25 to 75%

Sure, the documented inhibition at 1 µM for Cc1cc(-c2ccc(CN3CCN(C(=O)OC(C(F)(F)F)C(F)(F)F)CC3)c(C)c2)cc(C)n1 [Example 11m] is 25 to 75%

---

Entries and their IC50
System under test: FAAH (Mus musculus (Mouse), UniProt O08914)
Test protocol: In vitro competitive activity-based protein profiling (FP-Rh), mouse FAAH
Type: biochemical
Run conditions: mouse brain membrane proteome, competitive ABPP (Table 7)

Example results:
Molecule | IC50
O=C(OC(C(F)(F)F)C(F)(F)F)N1CCN(Cc2ccc(Cl)cc2-n2cccn2)CC1 | > 10000 nM
O=C(OC(C(F)(F)F)C(F)(F)F)N1CCN(Cc2ccc(Cl)cc2N2CCN3CCC[C@@H]3C2)CC1 | > 10000 nM
O=C(OC(C(F)(F)F)C(F)(F)F)N1CCN(Cc2cccc(Cl)c2N2CCCC2)CC1 | > 10000 nM
COc1cc(-c2ccccc2)ccc1CN1CCN(C(=O)OC(C(F)(F)F)C(F)(F)F)CC1 [Example 11j] | > 10000 nM
O=C(OC(C(F)(F)F)C(F)(F)F)N1CCN(Cc2ccc(N3CCOCC3)c(Cl)c2)CC1 | > 10000 nM
O=C(OC(C(F)(F)F)C(F)(F)F)N1CCN(Cc2ccc(-n3cccn3)c(F)c2)CC1 | > 10000 nM
O=C(OC(C(F)(F)F)C(F)(F)F)N1CCN(Cc2ccc(Cl)cc2N2Cc3cccnc3C2)CC1 | > 10000 nM
O=C(OC(C(F)(F)F)C(F)(F)F)N1CCN(Cc2ccc(C(=O)N3CCC3)cc2Cl)CC1 | > 10000 nM
O=C(OC(C(F)(F)F)C(F)(F)F)N1CCN(Cc2ccc(N3CCCC3)c(F)c2)CC1 | > 10000 nM
CC(C)n1cc(CN2CCN(C(=O)OC(C(F)(F)F)C(F)(F)F)CC2)c(-c2ccccc2Cl)n1 [Example 10i] | > 10000 nM

Sure, the documented IC50 for CC(C)c1cc(N2CCCC2)ccc1CN1CCN(C(=O)OC(C(F)(F)F)C(F)(F)F)CC1 is > 10000 nM

Sure, the documented IC50 for Cc1nn(-c2ccccc2)cc1CN1CCN(C(=O)OC(C(F)(F)F)C(F)(F)F)CC1 [Example 10c] is > 6250 nM

Sure, the documented IC50 for O=C(OC(C(F)(F)F)C(F)(F)F)N1CCN(Cc2ccc(Br)cc2N2CCCC2)CC1 is > 250 nM

Sure, the documented IC50 for COc1ccc(CN2CCN(C(=O)OC(C(F)(F)F)C(F)(F)F)CC2)cc1 is > 6250 nM

---

System under test: ABHD6 (Mus musculus (Mouse))
Test protocol: In vitro competitive activity-based protein profiling (FP-Rh), mouse ABHD6
Assay type: biochemical
Run conditions: mouse brain membrane proteome, competitive ABPP (Table 7)
Entries and their IC50

Example results:
Compound | Readout value
O=C(OC(C(F)(F)F)C(F)(F)F)N1CCN(Cc2ccc(-c3ccccc3)cc2F)CC1 [Example 11p] | > 1000 nM
O=C(OC(C(F)(F)F)C(F)(F)F)N1CCN(Cc2ccc(N3CCCC3)cc2OC(F)(F)F)CC1 | > 1000 nM
O=C(OC(C(F)(F)F)C(F)(F)F)N1CCN(Cc2ccc(Cl)cc2-n2cc(Cl)cn2)CC1 | 100 to 1000 nM
CC(=O)N1CCN(c2cc(Cl)ccc2CN2CCN(C(=O)OC(C(F)(F)F)C(F)(F)F)CC2)CC1 | > 1000 nM
O=C(OC(C(F)(F)F)C(F)(F)F)N1CCN(Cc2ccc(N3CCOCC3)cc2)CC1 | 100 to 1000 nM
CS(=O)(=O)N1CCN(c2cc(Cl)ccc2CN2CCN(C(=O)OC(C(F)(F)F)C(F)(F)F)CC2)CC1 | 100 to 1000 nM
CC(=O)NC1CCN(c2cc(Cl)ccc2CN2CCN(C(=O)OC(C(F)(F)F)C(F)(F)F)CC2)C1 (stereo not shown) | > 1000 nM
O=C(OC(C(F)(F)F)C(F)(F)F)N1CCN(Cc2ccc(N3CCCC3)c(F)c2)CC1 | 100 to 1000 nM

Sure, the documented IC50 for O=C(OC(C(F)(F)F)C(F)(F)F)N1CCN(Cc2ccc(-n3cccn3)c(F)c2)CC1 is 100 to 1000 nM

Sure, the documented IC50 for O=C(OC(C(F)(F)F)C(F)(F)F)N1CCN(Cc2ccc(N3CCCC3)cc2Cl)CC1 is > 1000 nM

Sure, the documented IC50 for CC(C)c1cc(N2CCCC2)ccc1CN1CCN(C(=O)OC(C(F)(F)F)C(F)(F)F)CC1 is > 1000 nM

Sure, the documented IC50 for CN(C)C(=O)c1cc(-c2ccccc2)ccc1CN1CCN(C(=O)OC(C(F)(F)F)C(F)(F)F)CC1 [Example 11x] is > 1000 nM

Sure, the documented IC50 for COc1ccc(CN2CCN(C(=O)OC(C(F)(F)F)C(F)(F)F)CC2)cc1 is 100 to 1000 nM
